Reported z-score values for a set of compounds
# assay-method-text: P. aeruginosa biofilm formation inhibitors, primary screen, PAO1 strain, BacTiter-Glo luminescence, LB-PBS (AID 1144)
# condition-context: 12 h, higher = more signal

smiles-repr	z-score
CO[C@H]1O[C@H](CO)[C@@H](OC(=O)Nc2ccc3c(c2)OCO3)[C@H](OC(=O)Nc2ccccc2-c2ccccc2)[C@@H]1OC(=O)Nc1ccccc1-c1ccccc1	-0.176
CCOC(=O)NN=C1C[C@@H](O)[C@@H](O)[C@@H]2[C@@H]3C(=O)N(C4CCCCC4)C(=O)[C@@H]3CC[C@@H]12	0.471
CCOC(=O)CCN1C(=O)[C@H]2[C@H]3[C@H](O)[C@H](O)CC(=O)[C@H]3CC[C@H]2C1=O	-0.829
NCCCCCNC(=O)[C@@H]1C[C@@H]2C(=O)N3CCC[C@H]3C(=O)N2[C@@H]1c1cccc(OCCO)c1	-0.0862
COC(=O)CC=C[C@@H](C)[C@@H](C=NO[C@H](C)c1cn([C@@H]2COC[C@H]2O)nn1)OC	-1.66
C#C[C@@H]1Oc2ccccc2S(=O)(=O)N2CCC[C@H]12	0.405
C=CCNC(=O)[C@H]1[C@@H]2C(=O)O[C@@H](c3ccccc3)[C@@H](c3ccccc3)N2[C@@H](c2ccc(O)cc2)[C@]12C(=O)N(C(=O)OCCOC)c1ccc(C#CC3=CCCCC3)cc12	0.101

====

# assay-method-text: HepG2 cell viability effects, profiling panel, calcein-AM fluorescence, 48 h, basal (AID 1164); further: test concentration not given here
# condition-context: higher = more signal
Hi, to clarify the labels: Satisfied covers z-score from -0.1 upward, Not satisfied covers anything below -0.1.

compound	category
CO[C@H]([C@@H](C)[C@H](OC)c1ccccc1)[C@H](C)[C@@H](OC)[C@H](C)C(C)=O	Satisfied
COCCOC(=O)N1C(=O)[C@@]2(c3ccccc31)[C@H](C(N)=O)[C@H]1C(=O)O[C@H](c3ccccc3)[C@H](c3ccccc3)N1[C@@H]2c1ccccc1OCCO	Not satisfied
CC(C)CON=C1C[C@@H](O)[C@@H](O)[C@@H]2[C@@H]3C(=O)N(C[C@@H]4CCCO4)C(=O)[C@@H]3CC[C@H]12	Not satisfied
CC(CCN1CCc2nc(-c3ccccc3)c(-c3ccccc3)cc2C1)=NOC(C)CN1CCCCc2nc(C)c(C)cc21 (stereo unspecified)	Satisfied
COC(=O)[C@]1(CO)N=C(c2ccc(OCCCO)cc2)O[C@@H]1c1ccccc1N=[N+]=[N-]	Satisfied
Cc1cc2c(nc1C)CCCN2CC(O)CN1CCN(C)CC1 (stereo unspecified)	Not satisfied
CC(C)=CCCC(C)=CCON=C1[C@H]2CCn3c(=O)n(C)c(=O)n3[C@H]2[C@H](O)[C@@H]2O[C@H]12	Satisfied
COC(=O)CC=C[C@H](C)[C@@H](OCc1ccccc1Br)C(C)C	Satisfied
CC(C)CON=C1C[C@@H](O)[C@@H](O)[C@@H]2[C@@H]3C(=O)N(Cc4ccccc4)C(=O)[C@@H]3CC[C@@H]12	Not satisfied
C[C@@H]1CCC2C(=O)N(Cc3ccccc3)C[C@@H](O)CN2[C@H]1c1ccc(Br)cc1 (stereo partly specified)	Satisfied
O[C@@H](Cc1ccccc1)[C@H]1C2C=CCCC(c3ccccc3)=C2CN1Cc1cccc(Cl)c1 (stereo partly specified)	Satisfied
O=C1C2C=CC(C(O)c3ccc([N+](=O)[O-])cc3)N(Nc3ccc([N+](=O)[O-])cc3)C2C(=O)N1c1ccccc1 (stereo unspecified)	Satisfied
CC(=O)OC[C@H]1O[C@H](CCON=C[C@@H](C)[C@H](OCc2ccccc2)C(C)C)C=C[C@@H]1OC(C)=O	Not satisfied
COC(=O)CC=C[C@@H](C)[C@@H](C=NO[C@@H](C)c1cc(-c2c(C)cc(C)cc2C)no1)OC	Not satisfied
C#CCCCON=C1C[C@@H](O)[C@@H](O)[C@@H]2[C@@H]3C(=O)N(Cc4ccccc4)C(=O)[C@@H]3CC[C@H]12	Not satisfied
CCOC(=O)[C@H](Cc1ccccc1)NC(=O)CCC1CC(OC(=O)NCc2ccc3c(c2)OCO3)CC2(CCCC(COC(=O)NCc3cccc(C(F)(F)F)c3)O2)O1 (stereo partly specified)	Not satisfied
C[C@H]1CC[C@@H](C(=O)O)N[C@@H]1c1ccc(C#CCN(C)C)cc1	Satisfied
COC(=O)[C@H](C)NC(=O)CCC1CC(OC(=O)NCc2ccc3c(c2)OCO3)CC2(CCCC(COC(=O)NCCOc3ccccc3)O2)O1 (stereo partly specified)	Satisfied
CO[C@@H]1COC(=O)[C@H](C)NC(=O)[C@@H](C)COC(=O)CCC[C@H]1C	Not satisfied
C[C@@H](c1ccccc1)N1C(=O)[C@H]2[C@H]3[C@H](O)[C@H](O)CC(=NOC[C@@H](O)COCc4ccco4)[C@@H]3CC[C@H]2C1=O	Not satisfied
CC(C)(C)N1CC=CC23O[C@@H]4C=CCCOC(=O)C4[C@H]2C(=O)N(CCCCCO)[C@@H]3C1=O (stereo partly specified)	Satisfied
CCOC(=O)NN=C1C[C@@H](O)[C@@H](O)[C@@H]2[C@@H]3C(=O)N(C[C@@H]4CCCO4)C(=O)[C@@H]3CC[C@@H]12	Satisfied
N#Cc1ccc(NN2C(C(O)c3cccc4ccccc34)C=CC3C(=O)N(c4ccccc4)C(=O)C32)cc1 (stereo unspecified)	Satisfied
COc1ccc(O[C@H]2C=C[C@@H](c3ccccc3)O[C@@H]2COC(=O)CCC(C)=NO[C@H](C)c2cn([C@@H]3COC[C@H]3O)nn2)cc1	Not satisfied
CC(C)CON=C1C[C@@H](O)[C@@H](O)[C@@H]2[C@@H]3C(=O)N([C@@H](C)c4ccccc4)C(=O)[C@@H]3CC[C@H]12	Satisfied
C[C@H](c1ccccc1)N1C(=O)[C@H]2[C@@H]3C(=CC[C@H]2C1=O)C(=O)[C@H]1O[C@H]1[C@H]3O	Not satisfied
CCN1C(=O)[C@H]2[C@H]3[C@H](O)[C@H](O)CC(=NOCC=C(C)CCC=C(C)C)[C@H]3CC[C@H]2C1=O	Not satisfied
O=C1[C@H]2[C@H]3[C@H](O)[C@H](O)CC(=NOCc4ccccc4)[C@@H]3CC[C@H]2C(=O)N1Cc1ccccc1	Not satisfied
CC(C)c1ccc(NN2C(C(O)c3ccc4c(c3)OCO4)C=CC3C(=O)N(c4ccccc4)C(=O)C32)cc1 (stereo unspecified)	Satisfied
COC(=O)C1=CCC(c2cccc(Cl)c2)O1 (stereo unspecified)	Not satisfied
COC(=O)[C@@]1(Cc2ccc(F)cc2)[C@H]2c3cc(C(=O)N(C)C)n(Cc4ccc(OC)c(OC)c4)c3C[C@H]2CN1C(=O)c1ccccc1	Not satisfied
